Ref: patent US8575193B2

This section presents compounds with their documented IC50 at 72 h values.
- assay.name: Cellular cytotoxicity assay (Alamar Blue/Resazurin), A549
- Format: cell-based
- condition.info: human, A549 cells; A549, 72 hours incubation, Resazurin; read-out: A549 Cytotoxicity [pIC50] (converted)
Structures can show the parent of a compound that is named as a salt.

[[record]]
compound = "O=C(NO)c1ccc2c(c1)CN(C(=O)Cc1cccnc1)CC2 [Example 19, hydrochloride]"
attribute_measured = "IC50 at 72 h"
reported_measurement = "> 100 µM"


[in] Can you share its IC50 at 72 h? I mean this compound: O=C(NO)c1ccc2c(c1)CCN(C(=O)Cc1c[nH]c3ccccc13)C2 [Example 1, hydrochloride]
[out] 1 to 100 µM

[in] Now give it for `CC#CC(=O)N1CCc2ccc(C(=O)NO)cc2C1` too.
[out] > 100 µM

[in] Another compound: `O=C(NO)c1ccc2c(c1)CN(C(=O)NCCc1ccccc1)CC2`
[out] 1 to 100 µM

[in] Thanks! And O=C(NO)c1ccc2c(c1)CCN(C(=O)CCc1cccnc1)C2 [Example 7, hydrochloride] ?
[out] > 100 µM

[in] Moving on to O=C(NO)c1ccc2c(c1)CCN(C(=O)Cc1cccnc1)C2 [Example 8, hydrochloride]
[out] > 100 µM

[in] Check `O=C(NO)c1ccc2c(c1)CCN(C(=O)C1CC1)C2` too.
[out] > 100 µM

[in] // repeat for `COCCCOC(=O)N1CCc2cc(C(=O)NO)ccc2C1` and report
[out] > 100 µM

[in] And for `CNC(=O)N1CCc2cc(C(=O)NO)ccc2C1` ?
[out] > 100 µM

###

- assay.name: Cellular cytotoxicity assay (Alamar Blue/Resazurin), RKOp21
- Format: cell-based
- condition.info: human, RKOp21 cells; RKOp21, 72 hours incubation, Resazurin; read-out: RKOp21 Cytotoxicity [pIC50] (converted)
Counter-ions that a name gives are not always drawn.
attribute.measured: IC50 at 72 h

Field: example entries. Status: answers known.
[[record]]
molecule = "O=C(NO)c1ccc2c(c1)CCN(C(=O)Cc1c[nH]c3ccccc13)C2 [Example 1, hydrochloride]"
reported_measurement = "1 to 100 µM"

[[record]]
molecule = "CNC(=O)N1CCc2cc(C(=O)NO)ccc2C1 [Example 4]"
reported_measurement = "> 100 µM"

[[record]]
molecule = "O=C(NO)c1ccc2c(c1)CCN(C(=O)C1CCC1)C2 [Example 3]"
reported_measurement = "> 100 µM"

[[record]]
molecule = "O=C(NO)c1ccc2c(c1)CN(C(=O)C1CCOC1)CC2 (stereo not shown) [Example 20]"
reported_measurement = "> 100 µM"


Here is the next item to consider.
[in] Could you share which IC50 at 72 h value was measured for O=C(NO)c1ccc2c(c1)CCN(C(=O)Cc1cccnc1)C2 [Example 8, hydrochloride] ?
[out] > 100 µM

###

attribute.measured: melting point

Record excerpt, results attached:
[[record]]
molecule = "O=C(NO)c1ccc2c(c1)CN(C(=O)c1cc3ccccc3cn1)C2 [Example 29]"
attribute_measured = "melting point"
reported_measurement = "208 to 210 °C"

[[record]]
molecule = "O=C(NO)c1ccc2c(c1)CN(C(=O)c1ccc3ccccc3n1)C2 [Example 27]"
attribute_measured = "melting point"
reported_measurement = "162 to 166 °C"

[[record]]
molecule = "O=C(NO)c1ccc2c(c1)CN(C(=O)c1ccc3ncccc3c1)C2 [Example 28]"
attribute_measured = "melting point"
reported_measurement = "208 to 210 °C"


As a next step, examine the molecule that follows.
[in] I would be grateful if you could share the reported melting point for CC(=O)N1CCc2ccc(C(=O)NO)cc2C1 [Example 25] .
[out] 177 to 181 °C
